Target: human D3 dopamine receptors (Homo sapiens, UniProt P35462)
Construct: expressed in transfected cells; host or cells: CHO cells (crude cell membranes)
Sequence (P35462 whole entry): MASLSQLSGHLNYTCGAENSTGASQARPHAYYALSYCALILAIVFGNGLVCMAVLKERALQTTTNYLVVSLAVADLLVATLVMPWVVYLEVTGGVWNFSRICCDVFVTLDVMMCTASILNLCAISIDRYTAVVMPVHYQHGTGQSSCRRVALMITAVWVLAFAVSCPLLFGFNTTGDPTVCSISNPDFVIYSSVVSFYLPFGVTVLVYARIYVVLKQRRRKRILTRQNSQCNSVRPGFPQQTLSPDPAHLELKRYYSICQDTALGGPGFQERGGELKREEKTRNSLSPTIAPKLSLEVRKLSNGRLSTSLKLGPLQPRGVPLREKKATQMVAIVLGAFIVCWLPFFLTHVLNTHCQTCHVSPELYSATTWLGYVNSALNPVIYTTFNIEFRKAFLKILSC
Experiment: displacement of [125I] iodosulpride binding to cloned human D3 dopamine receptors expressed in CHO cells
Settings: 0.1 nM [125I] iodosulpride, CHO cell membranes, 30 min at 37° C.; read-out: pKi at the D3 receptor (converted)
Procedure: The inhibition constants (Ki) of test compounds for displacement of [^125I] iodosulpride binding to human D3 dopamine receptors expressed in CHO cells were determined as follows. […] Cultures were grown as monolayers or in suspension in standard cell culture media. Cells were recovered by scraping (from monolayers) or by centrifugation (from suspension cultures), and were washed two or three times by suspension in phosphate buffered saline followed by collection by centrifugation. […]
Field: Ki. Provide a value for each of the molecules that follow.

Here is how some molecules turned out for Ki.
Q: For `CC(C)(C)c1ccc(CC(=O)N[C@H]2CC[C@H](CCN3CCc4cc(C#N)ccc4C3)CC2)cc1` , write its Ki.
Ans: 3.16 to 12.6 nM

Q: Item `N#Cc1ccc2c(c1)CCN(CC[C@H]1CC[C@H](NC(=O)Cc3ccc(F)c(F)c3)CC1)C2` : provide Ki
Ans: 3.16 to 12.6 nM

Continue with the next molecule.
Q: Consider the molecule `N#Cc1ccc2c(c1)CCN(CC[C@H]1CC[C@H](NC(=O)CCc3ccc(F)cc3)CC1)C2` and give its recorded Ki.
Ans: 3.16 to 12.6 nM
